Biological target: T1, Cynomolgus Monkey VSIG4-L-His (cynomolgus monkey)
T1 construct: ECD with His tag; also called cyVSIG4-L; cyno VSIG4-L-His
T1 chain: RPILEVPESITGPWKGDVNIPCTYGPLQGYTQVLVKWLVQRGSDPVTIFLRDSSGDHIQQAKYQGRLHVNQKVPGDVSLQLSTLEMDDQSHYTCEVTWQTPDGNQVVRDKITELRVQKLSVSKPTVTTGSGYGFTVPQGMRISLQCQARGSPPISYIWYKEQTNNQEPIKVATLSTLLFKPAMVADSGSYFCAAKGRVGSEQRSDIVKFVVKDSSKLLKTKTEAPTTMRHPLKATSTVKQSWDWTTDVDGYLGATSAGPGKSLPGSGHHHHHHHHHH
Assay: BLI (Octet), mouse IgG on AMC sensor, antigen 100 nM;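 note: octet Red384 biolayer interferometry with immobilized mouse hybridoma antibodies, 300 s association then 300 s dissociation at 30 °C, isotype-control reference subtraction, 1:1 global fit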
REPORTED METRIC: Kd (nM)
Reply with just the number (in nM).

Use these answered entries as a reference point.
binder="9A10.C4 murine hybridoma antibody (antibody, V domains shown, murine IgG purified from hybridoma supernatant) VH: EVQLVESGGALVQPGGSLKLSCVASGFSFSNCVMSWVRQSPEKRLEWVATIGSDGSYSYYQDNVKGRFTVSRDNAKNTLYLQMSSLGSEDTALYYCGRHIYGYDVVDYWGQGTSLTVSS VL: DIVMTQSHKFMSTSVGDRVTITCKASQDVSNVVAWFQQKPGQSPKLLIYSASYRFGGVPDRFTGSGSGTDFTFTISSVQAEDLAVYYCQQHYDTPLTFGTGTTLELK" output_unit=nM reported_measurement=1.23
binder="1H7.C7 murine hybridoma antibody (antibody, V domains shown, murine IgG purified from hybridoma supernatant) VH: EVQLVESGGGLVMPGGSRRLSCAASGFTFSDSGMYWVRQAPEKGLEWIAYISSGSDTLYYAATVKGRFTISRDNAKNTLFLQMTSLRSEDTAIYYCAKRNFYGYDVMDYWGQGTSVTVSS VL: DIVMTQSHKFMSTSVGDRVSITCKASQDVSNVVAWYQQKPGQSPKLLIYSASYRYTGVPDRFAGSGSGTDFTFTISSVQAEDLAVYYCQQHYSTPWTFGGGTKLEIK" output_unit=nM reported_measurement=6.45

Proceeding to the next binder to report its Kd.
Note to self: Kd recorded for 13E11.A4 murine hybridoma antibody (antibody, V domains shown, murine IgG purified from hybridoma supernatant) VH: EVQLVESGGALVKPGGSLKLSCVASRFNLNNCVMSWIRQTPEKRLEWVATIDSGSIYTYYPDSVKGRFTISRDNAKNTLYLQMSSLRSEDTAVYYCVRHIYGYDVVDNWGQGTTLTVAS VL: DIVMTQSHKFMSTSVGDNVSITCKASQYVSNTVAWYQQKPGQSPKLLIYSASYRNTGVPDRFTGSGSGTNFTFTISNMQAEDLAFYYCQQHYTSPLTFGAGTKLELK was 1.4
